Data origin, for the record: patent US11299462B2

Experiment: Study of the stability of the crystal forms (HPLC purity and XRPD crystal form, Day 7)
Assay type: physicochemical
Settings: XRPD, 40° C. 75% RH, Day 7
Metric: Crystal form

Some compounds with recorded Crystal form:
| Compound | Crystal form |
| --- | --- |
| COc1cn([C@@H](Cc2ccccc2)C(=O)Nc2ccc(C(=O)O)cc2)c(=O)cc1-c1cc(Cl)ccc1C(C)=O [Crystal form C] | Different |
| COc1cn([C@@H](Cc2ccccc2)C(=O)Nc2ccc(C(=O)O)cc2)c(=O)cc1-c1cc(Cl)ccc1C(C)=O [Crystal form B] | Same |
| COc1cn([C@@H](Cc2ccccc2)C(=O)Nc2ccc(C(=O)O)cc2)c(=O)cc1-c1cc(Cl)ccc1C(C)=O [Crystal form F] | Same |
| COc1cn([C@@H](Cc2ccccc2)C(=O)Nc2ccc(C(=O)O)cc2)c(=O)cc1-c1cc(Cl)ccc1C(C)=O [Crystal form A] | Different |

Alright, here's another compound for you.
[in] Field request: Crystal form | item: COc1cn([C@@H](Cc2ccccc2)C(=O)Nc2ccc(C(=O)O)cc2)c(=O)cc1-c1cc(Cl)ccc1C(C)=O [Crystal form D]
[out] Different
